Assay: Pharmacokinetic profile and brain distribution in rats after oral administration
Assay type: in vivo, rats (SD)
Details: SD, rat, oral 30 mg/kg, AUClast brain / AUClast plasma, read-out: B/P ratio
reportedProperty: Kp
Would you mind answering with just the numeric figure?

Entry Cc1ccc2c(Nc3cccc(Cl)c3F)nccc2c1NC(=O)c1csc2c(N)ncnc12 — recorded Kp = 1.2

====

Experiment: Pharmacokinetic profile and brain distribution in rats after oral administration
Type: in vivo, rats (SD)
Details: SD (Sprague-Dawley), rat, oral 30 mg/kg, plasma
reportedProperty: AUC(0-t) (ng·h/mL)
Supply the numeric figure in ng·h/mL, leaving out any unit text.

So for Cc1ccc2c(Nc3cccc(Cl)c3F)nccc2c1NC(=O)c1csc2c(N)ncnc12 , the logged AUC(0-t) turned out to be 98000
